IC50: recorded values
molecular target: human kinase Mps-1 (Homo sapiens (Human)); assay: Mps-1 Kinase Assay (TR-FRET); conditions: N-terminally GST-tagged human full length recombinant Mps-1; 10 μM ATP; 1 μM peptide substrate; 60 min at 22° C.; read-out: Mps1 IC50
Reply numerically in µM, unit not repeated.

# count of solved cases: 2
>>> print(df.to_string())
                                   compound  recorded_measurement
0  O=C(NC1CC1)c1ccc(-c2cnc3c(S(=O)(=O)Cc4ccco4)nc(-c4ccccc4)cn23)cc1 [Example 28B]                0.0071
1  CC(C)CC[S+]([O-])c1nc(-c2ccccc2)cn2c(-c3ccc(C(=O)NC4CC4)cc3)cnc12 (racemic) [Example 24A]                0.0145

Which IC50 value belongs to CCC[S+]([O-])c1nc(-c2ccccc2)cn2c(-c3ccc(C(=O)NC4CC4)cc3)cnc12 (racemic) [Example 7A] ?
0.02

Which IC50 value belongs to CC(C)CCS(=O)(=O)c1nc(-c2ccccc2)cn2c(-c3ccc(C(=O)NC4CC4)cc3)cnc12 [Example 24B] ?
0.0065

Which IC50 value belongs to CCCCCSc1nc(-c2ccccc2)cn2c(-c3ccc(C(=O)NC4CC4)cc3)cnc12 [Example 17] ?
0.0798

* * *

biological target: human kinase Mps-1 (Homo sapiens (Human), UniProt P33981); assay: Mps-1 Kinase Assay (TR-FRET); conditions: N-terminally GST-tagged human full length recombinant Mps-1; 10 μM ATP; 1 μM peptide substrate; 60 min at 22° C.; read-out: Mps1 IC50
Sequence (P33981 whole entry): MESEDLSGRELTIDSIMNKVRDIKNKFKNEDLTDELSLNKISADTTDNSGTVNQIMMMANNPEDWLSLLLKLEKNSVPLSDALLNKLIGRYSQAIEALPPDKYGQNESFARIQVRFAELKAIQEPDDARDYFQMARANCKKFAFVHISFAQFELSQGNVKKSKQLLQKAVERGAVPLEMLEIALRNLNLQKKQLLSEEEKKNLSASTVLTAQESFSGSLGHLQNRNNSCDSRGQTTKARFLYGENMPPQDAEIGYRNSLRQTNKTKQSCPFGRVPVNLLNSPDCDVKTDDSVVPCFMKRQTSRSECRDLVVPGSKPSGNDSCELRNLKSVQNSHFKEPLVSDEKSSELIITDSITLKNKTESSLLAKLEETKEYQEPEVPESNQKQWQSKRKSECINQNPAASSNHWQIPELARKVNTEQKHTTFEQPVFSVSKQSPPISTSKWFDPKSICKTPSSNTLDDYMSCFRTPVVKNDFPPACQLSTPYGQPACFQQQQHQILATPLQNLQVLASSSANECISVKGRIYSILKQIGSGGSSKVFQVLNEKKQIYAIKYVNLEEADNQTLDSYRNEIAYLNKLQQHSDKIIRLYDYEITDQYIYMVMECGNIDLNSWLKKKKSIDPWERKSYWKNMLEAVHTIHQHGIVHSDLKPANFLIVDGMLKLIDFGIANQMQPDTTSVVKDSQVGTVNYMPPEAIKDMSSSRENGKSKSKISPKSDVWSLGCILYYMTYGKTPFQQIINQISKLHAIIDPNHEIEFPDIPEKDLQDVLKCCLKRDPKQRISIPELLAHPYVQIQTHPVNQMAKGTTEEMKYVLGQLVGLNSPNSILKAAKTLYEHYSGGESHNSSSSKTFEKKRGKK
measurement name: IC50
Hi, when you answer, please include the unit after the number. Thanks!

# count of solved cases: 3
>>> df
                                   compound  measurement_name  recorded_measurement
0  CC(C)CSc1nc(-c2ccccc2)cn2c(-c3ccc(C(=O)NC4CC4)cc3)cnc12 [Example 21]              IC50             0.0132 µM
1  CCCCSc1nc(-c2ccccc2)cn2c(-c3ccc(C(=O)NC4CC4)cc3)cnc12 [Example 8]              IC50             0.0263 µM
2  CC(C)Sc1nc(-c2ccccc2)cn2c(-c3ccc(C(=O)NC4CC4)cc3)cnc12 [Example 19]              IC50             0.0223 µM

Which IC50 value belongs to CCCS(=O)(=O)c1nc(-c2ccccc2)cn2c(-c3ccc(C(=O)NC4CC4)cc3)cnc12 [Example 7B] ?
0.0101 µM

* * *

target: human kinase Mps-1 (Homo sapiens (Human)); test: Mps-1 Kinase Assay (TR-FRET); conditions: N-terminally GST-tagged human full length recombinant Mps-1; 10 μM ATP; 1 μM peptide substrate; 60 min at 22° C.; read-out: Mps1 IC50
IC50: recorded values
Reply numerically in nM, unit not repeated.

In [3]: df
Out[3]:
                                   compound                               target_desc  recorded_measurement
0  O=C(NC1CC1)c1ccc(-c2cnc3c(SCC(F)(F)F)nc(-c4ccccc4)cn23)cc1  human kinase Mps-1 (Homo sapiens (Human))                  26.3

Which IC50 value belongs to C[S+]([O-])c1nc(-c2ccccc2)cn2c(-c3ccc(C(=O)NC4CC4)cc3)cnc12 (racemic) ?
8.9

Which IC50 value belongs to CCSc1nc(-c2ccccc2)cn2c(-c3ccc(C(=O)NC4CC4)cc3)cnc12 ?
22.2

Which IC50 value belongs to CC(C)(C)CCSc1nc(-c2ccccc2)cn2c(-c3ccc(C(=O)NC4CC4)cc3)cnc12 ?
85.1

Which IC50 value belongs to CCCSc1nc(-c2ccccc2)cn2c(-c3ccc(C(=O)NC4CC4)cc3)cnc12 ?
11

Which IC50 value belongs to CC(C)CCSc1nc(-c2ccccc2)cn2c(-c3ccc(C(=O)NC4CC4)cc3)cnc12 ?
25.2

Which IC50 value belongs to O=C(NC1CC1)c1ccc(-c2cnc3c(S(=O)(=O)CCCCO)nc(-c4ccccc4)cn23)cc1 ?
5.1

* * *

Target: human kinase Mps-1 (Homo sapiens (Human))
Assay: Mps-1 Kinase Assay (TR-FRET)
Assay type: biochemical
Conditions: N-terminally GST-tagged human full length recombinant Mps-1; 10 μM ATP; 1 μM peptide substrate; 60 min at 22° C.; read-out: Mps1 IC50
Description: The human kinase Mps-1 phosphorylates a biotinylated substrate peptide. Detection of the phosphorylated product is achieved by time-resolved fluorescence resonance energy transfer (TR-FRET) from Europium-labelled anti-phospho-Serine/Threonine antibody as donor to streptavidin labelled with cross-linked allophycocyanin (SA-XLent) as acceptor. Compounds are tested for their inhibition of the kinase activity. […]
pIC50: −log10 of the molar value.
// not satisfied strictly below 8 in pIC50; satisfied otherwise

In [3]: df
Out[3]:
                                   compound                               target_desc  assigned_category
0  CSc1nc(-c2ccccc2)cn2c(-c3ccc(-c4cnc(C5CC5)[nH]4)cc3)cnc12  human kinase Mps-1 (Homo sapiens (Human))      not satisfied
1  O=C(NC1CC1)c1ccc(-c2cnc3c(SCc4ccco4)nc(-c4ccccc4)cn23)cc1  human kinase Mps-1 (Homo sapiens (Human))      not satisfied
2  C=Cc1ccc(-c2cn3c(-c4ccc(-c5cnc(C6CC6)[nH]5)cc4)cnc3c(SC)n2)cc1  human kinase Mps-1 (Homo sapiens (Human))      not satisfied
3  CSc1nc(Br)cn2c(-c3ccc(C(=O)NC4CC4)cc3)cnc12  human kinase Mps-1 (Homo sapiens (Human))      not satisfied
4  CS(=O)(=NC(=O)C(F)(F)F)c1nc(-c2ccccc2)cn2c(-c3ccc(C(=O)NC4CC4)cc3)cnc12 (racemic)  human kinase Mps-1 (Homo sapiens (Human))          satisfied

Could you please find out whether CC(C)(C)CCS(=O)(=O)c1nc(-c2ccccc2)cn2c(-c3ccc(C(=O)NC4CC4)cc3)cnc12 [Example 11B] has pIC50 that meets 8 or exceeds it?
satisfied

Could you please find out whether CC(=O)NCCSc1nc(-c2ccccc2)cn2c(-c3ccc(C(=O)NC4CC4)cc3)cnc12 has pIC50 that meets 8 or exceeds it?
not satisfied

* * *

target: UniProt P33981; experiment: Mps-1 Kinase Assay (TR-FRET); details: N-terminally GST-tagged human full length recombinant Mps-1; 10 μM ATP; 1 μM peptide substrate; 60 min at 22° C.; read-out: Mps1 IC50
pIC50: −log10 of the molar value.
// not satisfied strictly below 8 in pIC50; satisfied otherwise

Example entries and their recorded answers appear below.
>>> df
                                   compound  assigned_category
0  CC(C)(C)OC(=O)NCCSc1nc(-c2ccccc2)cn2c(-c3ccc(C(=O)NC4CC4)cc3)cnc12 [Example 16]      not satisfied
1  CSc1nc(-c2ccncc2)cn2c(-c3ccc(-c4cnc(C5CC5)[nH]4)cc3)cnc12 [Example 31]      not satisfied

Shift focus to the following entry.
Could you please find out whether O=C(NC1CC1)c1ccc(-c2cnc3c(SCCCCO)nc(-c4ccccc4)cn23)cc1 [Example 35] has pIC50 that meets 8 or exceeds it?
satisfied

* * *

molecular target: human kinase Mps-1 (Homo sapiens (Human)); test: Mps-1 Kinase Assay (TR-FRET); conditions: N-terminally GST-tagged human full length recombinant Mps-1; 10 μM ATP; 1 μM peptide substrate; 60 min at 22° C.; read-out: Mps1 IC50
measurement name: pIC50
Value format note: pIC50 is -log10 of concentration (mol/L); just state the number.

# count of solved cases: 8
>>> print(df.to_string())
                                   compound  recorded_measurement
0  O=C(NC1CC1)c1ccc(-c2cnc3c(S(=O)(=O)CC(F)(F)F)nc(-c4ccccc4)cn23)cc1 [Example 26B]                  8.09
1  CS(=O)(=O)c1nc(-c2ccccc2)cn2c(-c3ccc(C(=O)NC4CC4)cc3)cnc12 (racemic)                  8.22
2  CC(C)S(=O)(=O)c1nc(-c2ccccc2)cn2c(-c3ccc(C(=O)NC4CC4)cc3)cnc12 [Example 20B]                  7.86
3  CCCCCS(=O)(=O)c1nc(-c2ccccc2)cn2c(-c3ccc(C(=O)NC4CC4)cc3)cnc12 [Example 18B]                  8.12
4  CC(C)C[S+]([O-])c1nc(-c2ccccc2)cn2c(-c3ccc(C(=O)NC4CC4)cc3)cnc12 (racemic) [Example 22A]                  7.90
5  CC(C)CS(=O)(=O)c1nc(-c2ccccc2)cn2c(-c3ccc(C(=O)NC4CC4)cc3)cnc12 [Example 22B]                  8.19
6  O=C(NC1CC1)c1ccc(-c2cnc3c(SCC4CCCO4)nc(-c4ccccc4)cn23)cc1 (racemic)                  8.10
7  CCS(=O)(=O)c1nc(-c2ccccc2)cn2c(-c3ccc(C(=O)NC4CC4)cc3)cnc12                  8.11

Which pIC50 value belongs to CCCCS(=O)(=O)c1nc(-c2ccccc2)cn2c(-c3ccc(C(=O)NC4CC4)cc3)cnc12 ?
7.85

Which pIC50 value belongs to O=C(NC1CC1)c1ccc(-c2cnc3c([S+]([O-])CC(F)(F)F)nc(-c4ccccc4)cn23)cc1 (racemic) [Example 26A] ?
8.21
